Molecular target: USP7 (Homo sapiens, UniProt Q93009)
Construct: USP7, construct USP7 (208-1102) 6*His, Viva Biotech; 6xHis (C); purchased Viva Biotech
Sequence (Q93009 208-1102): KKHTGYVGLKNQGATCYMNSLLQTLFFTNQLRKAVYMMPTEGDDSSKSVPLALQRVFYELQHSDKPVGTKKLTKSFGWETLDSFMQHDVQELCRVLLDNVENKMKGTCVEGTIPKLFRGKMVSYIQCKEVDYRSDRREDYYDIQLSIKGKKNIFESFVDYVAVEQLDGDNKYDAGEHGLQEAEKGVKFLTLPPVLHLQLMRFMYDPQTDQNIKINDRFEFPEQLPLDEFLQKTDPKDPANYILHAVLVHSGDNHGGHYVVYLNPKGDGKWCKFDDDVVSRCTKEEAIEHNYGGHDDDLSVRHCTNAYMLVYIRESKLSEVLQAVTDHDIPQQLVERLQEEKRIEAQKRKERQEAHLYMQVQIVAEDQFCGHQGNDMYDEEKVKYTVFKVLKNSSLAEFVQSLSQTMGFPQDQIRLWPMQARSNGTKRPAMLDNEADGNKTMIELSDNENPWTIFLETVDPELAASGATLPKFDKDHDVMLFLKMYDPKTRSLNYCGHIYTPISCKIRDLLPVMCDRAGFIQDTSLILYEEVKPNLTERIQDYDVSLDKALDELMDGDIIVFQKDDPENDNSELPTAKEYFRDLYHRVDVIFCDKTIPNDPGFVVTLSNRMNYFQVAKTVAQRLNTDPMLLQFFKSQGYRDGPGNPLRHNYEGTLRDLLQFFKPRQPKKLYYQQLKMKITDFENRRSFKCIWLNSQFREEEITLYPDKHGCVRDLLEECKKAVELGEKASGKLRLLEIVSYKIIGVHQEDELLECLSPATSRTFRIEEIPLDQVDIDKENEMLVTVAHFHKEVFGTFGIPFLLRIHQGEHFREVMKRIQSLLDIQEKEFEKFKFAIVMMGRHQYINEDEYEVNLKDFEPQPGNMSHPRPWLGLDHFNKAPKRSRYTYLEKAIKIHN
Experiment: USP7 Assay A (Ubitquin-Rhodamine 110 Assay)
Format: biochemical
Conditions: USP7 assay A and B (table does not say which assay per compound); read-out: USP7_IC50
metric: IC50

The reported IC50 of the molecule `O=C(c1ccc(-n2ccnn2)cc1)N1CCC(O)(Cn2cnc3c(cnn3-c3ccc(Cl)cc3)c2=O)CC1` was 200 to 1000 nM

In plain terms, `O=C(C1CC1)N1CCC(O)(Cn2cnc3c(cnn3-c3cccc(-c4cccc(Cl)c4)c3)c2=O)CC1` has a documented IC50 of 1000 to 10000 nM

Kindly note the recorded IC50 for `CC1(C(=O)N2CCC(O)(Cn3cnc4c(cnn4-c4ccc(OC5CC(F)(F)C5)cc4)c3=O)CC2)CC1` , which is < 200 nM

The measured IC50 associated with `O=C(C1CC1)N1CCC(O)(Cn2cnc3c(cnn3-c3ccc(N4CCCc5ccccc54)cc3)c2=O)CC1` reads 1000 to 10000 nM

In plain terms, `O=C(c1cc(Cl)ccc1Cl)N1CCC(O)(Cn2cnc3c(cnn3-c3ccccc3)c2=O)CC1` has a documented IC50 of 200 to 1000 nM

molecule `CO[C@@H]1CCN(c2ccc(-n3ncc4c(=O)n(CC5(O)CCN(C(=O)N(C)C)CC5)cnc43)cc2)C1` , IC50 observed: 1000 to 10000 nM

Note to self: IC50 recorded for `O=C(C[C@H](c1ccccc1)C(F)F)N1CCC(O)(Cn2cnc3c(cnn3-c3ccccc3)c2=O)CC1` was 1000 to 10000 nM

---

Target: USP7 (Homo sapiens)
Construct: USP7, construct USP7 (208-1102) 6*His, Viva Biotech; 6xHis (C); purchased Viva Biotech
Experiment: USP7 Assay A (Ubitquin-Rhodamine 110 Assay)
Type: biochemical
Settings: USP7 activity in USP7 assay A and B (table does not say which assay per compound); read-out: USP7_IC50
Procedure: Each assay was performed in a final volume of 15 μL in assay buffer containing 20 mM Tris-HCl (pH 8.0, (1M Tris-HCl, pH 8.0 solution; Corning 46-031-CM)), 1 mM GSH (L-Glutathione reduced; Sigma #G4251), 0.03% BGG ([…], Sigma, #G7516-25G), and 0.01% Triton X-100 (Sigma, #T9284-10L). […] Fluorescence was read on the Envision (Excitation at 485 nm and Emission at 535 nm; Perkin Elmer) or on the PheraSTAR (Excitation at 485 nm and Emission at 535 nm; BMG Labtech). […]
pIC50: −log10 of the molar value.
For each record, write down the corresponding pIC50.

Observed pIC50 on USP7 (Homo sapiens), entry `Cc1nc2n(n1)CCN(c1ccc(-n3ncc4c(=O)n(CC5(O)CCN(C(=O)c6ccc(F)cc6)CC5)cnc43)cc1)C2` , equals 5.00 to 6.00

The recorded pIC50 with USP7 (Homo sapiens) for Cn1ccc(OC2CCC(C(=O)N3CCC(O)(Cn4cnc5c(cnn5-c5ccc(F)cc5)c4=O)CC3)CC2)n1 (stereo not drawn) [Compound I-753] was 6.00 to 6.70

For the molecule `O=C(C1CC1)N1CCC(O)(Cn2cnc3c(cnn3-c3ccc(-c4ccc5[nH]ccc5n4)cc3)c2=O)CC1` , the measured pIC50 on USP7 (Homo sapiens) was 6.00 to 6.70

# lookup: `Cc1cc(N[C@H]2CC[C@@H](C(=O)N3CCC(O)(Cn4cnc5c(cnn5-c5ccc(F)cc5)c4=O)CC3)CC2)no1` on USP7 (Homo sapiens), pIC50 = 5.00 to 6.00

Readout pIC50 for `Cn1ncc2ccc(-c3ccc(-n4ncc5c(=O)n(CC6(O)CCN(C(=O)C7CC7)CC6)cnc54)cc3)cc21` , test system USP7 (Homo sapiens), was 5.00 to 6.00

pIC50 on USP7 (Homo sapiens) for `Cc1cnn(-c2ccc(-n3ncc4c(=O)n(CC5(O)CCN(C(=O)c6ccc(F)cc6)CC5)cnc43)cc2)c1` is 5.00 to 6.00

Record O=C(NC1CCC(C(=O)N2CCC(O)(Cn3cnc4c(cnn4-c4ccc(F)cc4)c3=O)CC2)CC1)C1CC1 (stereo not drawn) has USP7 (Homo sapiens) pIC50 equal to 5.00 to 6.00

// returns pIC50 for `Cn1cc(C(=O)N2CCC(O)(Cn3cnc4c(ccn4-c4ccc(F)cc4)c3=O)CC2)cn1` with USP7 (Homo sapiens); value = 6.00 to 6.70

Simply: O=C(c1ccc(N2CCN3CCCC3C2)cc1)N1CCC(O)(Cn2cnc3c(cnn3-c3ccc(F)cc3)c2=O)CC1 (stereo not drawn) [Compound I-1735] , USP7 (Homo sapiens), pIC50 = 5.00 to 6.00

Record `Cc1ccc(-c2ccc(-n3ncc4c(=O)n(CC5(O)CCN(C(=O)C6CC6)CC5)cnc43)cc2)nc1` has USP7 (Homo sapiens) pIC50 equal to 6.00 to 6.70

The value of pIC50 recorded for `Cn1cc(C(=O)N2CCC(O)(Cn3cnc4c(cnn4-c4ccc(Cl)cc4)c3=O)CC2)cn1` when tested on USP7 (Homo sapiens) reads 6.00 to 6.70

Measured pIC50 (USP7 (Homo sapiens)), entry `CC1(C(=O)N2CCC(O)(Cn3cnc4c(cnn4-c4ccc(-c5cnn(C6CC6)c5)cc4)c3=O)CC2)CCC1` : > 6.70

Bench note, USP7 (Homo sapiens): entry O=C(C1CCC(Oc2cccnn2)CC1)N1CCC(O)(Cn2cnc3c(cnn3-c3ccc(F)cc3)c2=O)CC1 (stereo not drawn) , its pIC50 = 6.00 to 6.70

Lab note: molecule `O=C(c1cnc(C2CC2)o1)N1CCC(O)(Cn2cnc3c(cnn3-c3ccc(C4CC4)cc3)c2=O)CC1` tested on USP7 (Homo sapiens); recorded pIC50 was > 6.70

pIC50 on USP7 (Homo sapiens) for Cn1cc(OC2CCC(C(=O)N3CCC(O)(Cn4cnc5c(cnn5-c5ccc(F)cc5)c4=O)CC3)CC2)cn1 (stereo not drawn) [Compound I-757] is 6.00 to 6.70

Lab entry: USP7 (Homo sapiens) assay, molecule O=C(C1CCC(Oc2cccc(F)n2)CC1)N1CCC(O)(Cn2cnc3c(cnn3-c3ccc(F)cc3)c2=O)CC1 (stereo not drawn) [Compound I-740] , pIC50 = 6.00 to 6.70

The observed pIC50 for `CC1(C(=O)N2CCC(O)(Cn3cnc4c(cnn4-c4ccc(N5CC(C6CCOCC6)C5)cc4)c3=O)CC2)CC1` when tested with USP7 (Homo sapiens) stands at 6.00 to 6.70

Query `Cc1ncc(C(=O)N2CCC(O)(Cn3cnc4c(cnn4-c4ccc(-n5cc(CO)cn5)cc4)c3=O)CC2)o1` on USP7 (Homo sapiens); pIC50 returned: > 6.70

Lab note: molecule Cn1cc(OC2CCC(C(=O)N3CCC(O)(Cn4cnc5c(cnn5-c5ccc(F)cc5)c4=O)CC3)CC2)cn1 (stereo not drawn) [Compound I-758] tested on USP7 (Homo sapiens); recorded pIC50 was 6.00 to 6.70

Case `Cc1cnc(-c2ccc(C(=O)N3CCC(O)(Cn4cnc5c(cnn5-c5ccc(Cl)cc5)c4=O)CC3)cc2)n1C` , USP7 (Homo sapiens), pIC50 recorded as 5.00 to 6.00

// pIC50 (USP7 (Homo sapiens)) for `CC1(C(=O)N2CCC(O)(Cn3cnc4c(cnn4-c4cccc(N5CCC(C#N)CC5)c4)c3=O)CC2)CC1` = 6.00 to 6.70

---

Biological target: USP7 (Homo sapiens)
Construct: USP7, construct USP7 (208-1102) 6*His, Viva Biotech; 6xHis (C); purchased Viva Biotech
Assay: USP7 Assay A (Ubitquin-Rhodamine 110 Assay)
Type: biochemical
Conditions: USP7 activity in USP7 assay A and B (table does not say which assay per compound); read-out: USP7_IC50
Field: IC50. Provide a value for each of the compounds that follow.

# IC50 of CC1(COc2ccc(-n3ncc4c(=O)n(CC5(O)CCN(C(=O)c6cnc(C7CC7)o6)CC5)cnc43)cc2)CCC1 [Compound I-1508] = 200 to 1000 nM

Quick note, IC50 for O=C(c1cccn1Cc1ccc(F)cc1)N1CCC(O)(Cn2cnc3c(cnn3-c3ccc(F)cc3)c2=O)CC1 [Compound I-558] landed at 200 to 1000 nM

Short answer for C[C@@H](CC(=O)N1CCC(O)(Cn2cnc3c(cnn3-c3ccc(N4CC[C@@](C)(O)C4)cc3)c2=O)CC1)n1cccn1 [Compound I-1052] : IC50 was 200 to 1000 nM

Lookup result for O=C(C1CCC(Oc2ccc(F)cn2)CC1)N1CCC(O)(Cn2cnc3c(cnn3-c3ccc(F)cc3)c2=O)CC1 (stereo not shown) [Compound I-738] ; measured IC50: 200 to 1000 nM

The compound identified as O=C(C1CCC(Oc2ccccn2)CC1)N1CCC(O)(Cn2cnc3c(cnn3-c3ccc(F)cc3)c2=O)CC1 (stereo not shown) [Compound I-546] registered its IC50 at 200 to 1000 nM

Reported IC50 of CN1CCN(c2cccc(-n3ncc4c(=O)n(CC5(O)CCN(C(=O)C6(C)CC6)CC5)cnc43)c2)CC1 [Compound I-1690] : < 200 nM

Form: compound = C[C@H](CC(=O)N1CCC(O)(Cn2cnc3c(cnn3-c3ccc(N4CC[C@](C)(O)C4)cc3)c2=O)CC1)n1cccn1 [Compound I-839] ; IC50 = < 200 nM

Record O=C(C[C@@H](C(F)F)n1ccc(F)n1)N1CCC(O)(Cn2cnc3c(cnn3-c3ccc(F)cc3)c2=O)CC1 [Compound I-542] . Reported IC50: < 200 nM

Value of measured IC50 for the entry CN1CCN(c2ccc(-n3ncc4c(=O)n(CC5(O)CCN(C(=O)CC(C(F)F)n6cccn6)CC5)cnc43)cc2)CC1 (stereo not shown) [Compound I-825] : < 200 nM

Summary for this compound, O=C(C1CC1)N1CCC(O)(Cn2cnc3c(cnn3-c3ccc(-c4ccc(N5CC[C@H](O)C5)nc4)cc3)c2=O)CC1 [Compound I-686] : IC50 is 200 to 1000 nM

# IC50 of O=C(C1CC1)N1CCC(O)(Cn2cnc3c(ccn3-c3cccc(CN4CCCCC4)c3)c2=O)CC1 [Compound I-1009] = 1000 to 10000 nM

For record CN1CCN(c2cnn(-c3ccc(-n4ncc5c(=O)n(CC6(O)CCN(C(=O)C7CC7)CC6)cnc54)cc3)c2)CC1 [Compound I-975] the listed IC50 is 200 to 1000 nM

// IC50 value for CC1(C(=O)N2CCC(O)(Cn3cnc4c(cnn4-c4ccc(NC5CCC(F)(F)CC5)cc4)c3=O)CC2)CC1 [Compound I-786] : 200 to 1000 nM

compound O=C(C[C@H](C(F)F)n1cccn1)N1CCC(O)(Cn2cnc3c(cnn3-c3ccc(N4CCCCC4)cc3)c2=O)CC1 [Compound I-821] , IC50 observed: 1000 to 10000 nM

Lab note: measured IC50 of O=C(C1CC(Nc2ccc(F)cn2)C1)N1CCC(O)(Cn2cnc3c(cnn3-c3ccc(F)cc3)c2=O)CC1 (stereo not shown) [Compound I-1032] was 200 to 1000 nM

Record O=C(C1CCC(Oc2cccnc2)CC1)N1CCC(O)(Cn2cnc3c(cnn3-c3ccc(F)cc3)c2=O)CC1 (stereo not shown) [Compound I-750] , field IC50: 200 to 1000 nM

The compound listed as CN1CCN(c2cccc(-n3ncc4c(=O)n(CC5(O)CCN(C(=O)C6(C)CC6)CC5)cnc43)c2)CC1C(F)F (stereo not shown) [Compound I-1694] has a reported IC50 of < 200 nM

Note to self: IC50 recorded for Cc1cnn(-c2ccc(-n3ncc4c(=O)n(CC5(O)CCN(C(=O)c6cnc(C7CC7)o6)CC5)cnc43)cc2)c1 [Compound I-779] was < 200 nM

Recorded result, Cc1ccc(-n2ncc3c(=O)n(CC4(O)CCN(C(=O)C[C@H](C(F)F)n5ccc(F)n5)CC4)cnc32)cc1 [Compound I-796] , IC50: < 200 nM

Quick note, IC50 for CC(C)(CO)n1cc(-c2ccc(-n3ncc4c(=O)n(CC5(O)CCN(C(=O)c6ccc(F)cc6)CC5)cnc43)cc2)cn1 [Compound I-1616] landed at 200 to 1000 nM

Form field IC50, entry Cn1ncc2c(=O)n(CC3(O)CCN(C(=O)CC(C(F)F)n4ccc(F)n4)CC3)cnc21 (single isomer, unassigned) [Compound I-1697] : < 200 nM

Reported IC50 for O=C(C[C@@H](C(F)F)n1cccn1)N1CCC(O)(Cn2cnc3c(cnn3-c3ccc(-c4ccccc4)cc3)c2=O)CC1 [Compound I-646] was 1000 to 10000 nM

Sure, the documented IC50 for CNC1CCN(c2ccc(-c3ccc(-n4ncc5c(=O)n(CC6(O)CCN(C(=O)C7CC7)CC6)cnc54)cc3)cn2)C1 (stereo not shown) [Compound I-685] is < 200 nM

IC50 measured on CC(c1ccccc1)c1nn(C)cc1C(=O)N1CCC(O)(Cn2cnc3c(cnn3-c3ccc(F)cc3)c2=O)CC1 (stereo not shown) [Compound I-1025] = 200 to 1000 nM

CN1CCN(c2ccc(-n3ncc4c(=O)n(CC5(O)CCN(C(=O)C[C@H](C(F)F)n6cccn6)CC5)cnc43)cc2)CC1 [Compound I-826] yielded IC50 of < 200 nM
